Where these numbers come from: paper PMC5452050

Target: MERTK (Homo sapiens)
Sequence (Q12866 21-999): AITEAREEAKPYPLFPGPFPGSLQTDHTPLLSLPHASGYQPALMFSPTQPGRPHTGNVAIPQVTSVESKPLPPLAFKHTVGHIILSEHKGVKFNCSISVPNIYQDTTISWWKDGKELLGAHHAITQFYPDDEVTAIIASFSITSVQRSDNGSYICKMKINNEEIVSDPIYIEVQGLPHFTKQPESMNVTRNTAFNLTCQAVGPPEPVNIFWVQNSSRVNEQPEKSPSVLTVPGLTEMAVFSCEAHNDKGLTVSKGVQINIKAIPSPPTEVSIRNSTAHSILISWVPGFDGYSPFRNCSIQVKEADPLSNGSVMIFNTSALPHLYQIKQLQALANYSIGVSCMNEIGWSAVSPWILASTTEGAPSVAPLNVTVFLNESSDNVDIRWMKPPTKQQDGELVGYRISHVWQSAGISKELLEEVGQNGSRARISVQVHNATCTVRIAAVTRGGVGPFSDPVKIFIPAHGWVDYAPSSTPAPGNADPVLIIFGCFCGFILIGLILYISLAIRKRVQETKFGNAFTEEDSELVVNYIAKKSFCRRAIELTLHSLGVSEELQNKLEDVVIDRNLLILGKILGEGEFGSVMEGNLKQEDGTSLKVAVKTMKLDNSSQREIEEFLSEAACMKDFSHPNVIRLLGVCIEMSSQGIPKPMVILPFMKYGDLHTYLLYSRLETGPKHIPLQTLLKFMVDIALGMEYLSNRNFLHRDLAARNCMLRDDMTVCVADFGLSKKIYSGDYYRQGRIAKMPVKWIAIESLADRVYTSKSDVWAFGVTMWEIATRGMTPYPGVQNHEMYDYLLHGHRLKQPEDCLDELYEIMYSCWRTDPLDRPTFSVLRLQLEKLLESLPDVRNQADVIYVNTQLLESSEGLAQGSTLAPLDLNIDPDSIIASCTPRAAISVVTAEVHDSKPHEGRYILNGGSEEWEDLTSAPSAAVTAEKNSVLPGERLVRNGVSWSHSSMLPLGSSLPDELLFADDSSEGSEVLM
pKd: −log10 of the molar value.

compound	pKd
c1cncc(-c2cccc(Nc3nccc(NC4CCCCC4)n3)c2)c1 [Compound 1]	5.55
